B1: Membrane-associated guanylate kinase, WW and PDZ domain-containing protein 1, residues 352 to 401; numbered along this chain, Q96QZ7 (parent)
chain: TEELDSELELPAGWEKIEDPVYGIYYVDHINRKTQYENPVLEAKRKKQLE

- Variants of: B1
- method-description: abundance fitness (aPCA) (normalised: wild type 0, dead -1); higher = more abundant; growth selection in yeast, the domain comes from the species named
- condition: Homo sapiens
quantity-kind: abundance fitness
Answers are plain numbers.

Guide cases for abundance fitness, answers given:
> print(dat)
   mutant      quantity.kind  value.measured
1    V21F  abundance fitness           0.041
2    G13V  abundance fitness          -0.703
3    E37V  abundance fitness          -0.286
4    K46V  abundance fitness          -0.065
5    R45A  abundance fitness          -0.193

Hi there! I need abundance fitness for each item below, if you can.
1. G13E
2. N38C
3. I30Y
4. P20W
5. I30T
6. K33D
7. E50A

Key:
-0.425
-0.747
-0.086
-0.339
-0.256
-0.066
0.032

Hi there! I need abundance fitness for each item below, if you can.
1. D28A
2. L49K
3. T34G
4. K44T

Key:
1. -1.16
2. -0.002
3. -0.453
4. -0.2

Hi there! I need abundance fitness for each item below, if you can.
1. K46T
2. L4C
3. T1E
4. I30R
5. T34K

Key:
[-0.333, -0.593, 0.069, -0.128, -0.219]

Hi there! I need abundance fitness for each item below, if you can.
1. E15T
2. D5Q

Key:
1: -0.32; 2: -0.128

Hi there! I need abundance fitness for each item below, if you can.
1. A12P
2. Q35T
3. Q48N

Key:
1: -0.098; 2: 0.009; 3: 0.107

Hi there! I need abundance fitness for each item below, if you can.
1. P39D
2. H29D
3. I17P

Key:
-0.314
-0.535
-0.836

Hi there! I need abundance fitness for each item below, if you can.
1. P20E
2. A12K
3. E7W
4. E50D
5. W14G
6. V40Q
7. N38L

Key:
-0.426
-0.113
-0.181
0.006
-0.475
-0.385
-0.271

Hi there! I need abundance fitness for each item below, if you can.
1. Q48F
2. E7K

Key:
1. -0.339
2. 0.111
